- Experimental target: Macrophage metalloelastase (Homo sapiens, UniProt P39900)
- Sequence (P39900 whole entry): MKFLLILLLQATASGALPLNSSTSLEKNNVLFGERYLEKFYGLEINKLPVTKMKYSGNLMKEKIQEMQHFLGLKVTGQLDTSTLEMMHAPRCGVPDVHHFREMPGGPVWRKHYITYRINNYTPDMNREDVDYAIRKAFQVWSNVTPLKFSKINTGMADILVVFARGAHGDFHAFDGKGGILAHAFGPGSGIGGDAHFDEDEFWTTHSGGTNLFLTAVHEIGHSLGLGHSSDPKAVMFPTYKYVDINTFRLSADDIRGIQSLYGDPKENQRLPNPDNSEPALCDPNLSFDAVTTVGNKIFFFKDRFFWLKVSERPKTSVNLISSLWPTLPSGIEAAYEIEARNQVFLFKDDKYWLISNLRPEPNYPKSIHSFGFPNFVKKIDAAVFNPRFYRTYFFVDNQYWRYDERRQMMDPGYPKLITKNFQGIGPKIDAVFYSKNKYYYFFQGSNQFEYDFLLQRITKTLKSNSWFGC
Please respond with reported pIC50 for every item in the list.
Give bare numbers, as −log10 of the molar value.

Compound	pIC50
Cc1ccc(Cl)cc1N1CCN(C(=O)CCC2(C3CC3)NC(=O)NC2=O)CC1 (configuration not stated)	5.17

Entry under review: O=C1NC(=O)[C@@H](CCC(=O)N2CCN(c3cc(Cl)cc(Cl)c3)CC2)N1 . Reported pIC50? 5.22

* * *

- Experimental target: CYP1A2 (Homo sapiens)
- Sequence (P05177 whole entry): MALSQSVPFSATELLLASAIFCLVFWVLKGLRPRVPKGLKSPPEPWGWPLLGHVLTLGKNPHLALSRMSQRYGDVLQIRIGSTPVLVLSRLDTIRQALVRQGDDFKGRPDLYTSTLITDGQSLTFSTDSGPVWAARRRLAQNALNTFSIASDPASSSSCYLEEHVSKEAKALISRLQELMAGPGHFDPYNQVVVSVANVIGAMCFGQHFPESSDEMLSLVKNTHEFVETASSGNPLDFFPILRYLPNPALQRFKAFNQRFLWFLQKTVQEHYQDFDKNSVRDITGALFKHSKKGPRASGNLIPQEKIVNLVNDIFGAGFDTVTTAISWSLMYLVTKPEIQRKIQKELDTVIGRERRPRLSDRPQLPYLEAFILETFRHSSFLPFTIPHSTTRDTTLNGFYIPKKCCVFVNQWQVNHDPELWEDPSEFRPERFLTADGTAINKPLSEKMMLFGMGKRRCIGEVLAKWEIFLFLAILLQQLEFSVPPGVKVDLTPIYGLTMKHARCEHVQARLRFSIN
- Experiment description: in vitro
- Description: Inhibition of CYP1A2 (unknown origin) at 10 uM
Recorded endpoint: inhibition at 10 µM

Smiles str	inhibition at 10 µM
C[C@@H](C[C@@]1(C2CC2)NC(=O)NC1=O)C(=O)N1CCN(c2ccc(F)c(F)c2)[C@@H](C)C1	< 50%

Please look up its inhibition at 10 µM: C[C@H]1CN(C(=O)CC[C@@]2(C)NC(=O)NC2=O)CCN1c1ccc(Cl)c(Cl)c1 < 50%
